molecular target: mouse TRPM3α2 (mTRPM3) ion channel (Mus musculus (Mouse), UniProt J9SQF3); test: TRPM3 ion channel driven Ca2+ uptake, Fluo-4 AM assay, mTRPM3alpha2 overexpressing flip-in HEK293 cells stimulated with pregnenolone sulfate; assay type: cell-based; conditions: PS (50 μM) stimulated, cpd 001-199
Sequence (J9SQF3 other isoform, or with tags, fused parts or gaps): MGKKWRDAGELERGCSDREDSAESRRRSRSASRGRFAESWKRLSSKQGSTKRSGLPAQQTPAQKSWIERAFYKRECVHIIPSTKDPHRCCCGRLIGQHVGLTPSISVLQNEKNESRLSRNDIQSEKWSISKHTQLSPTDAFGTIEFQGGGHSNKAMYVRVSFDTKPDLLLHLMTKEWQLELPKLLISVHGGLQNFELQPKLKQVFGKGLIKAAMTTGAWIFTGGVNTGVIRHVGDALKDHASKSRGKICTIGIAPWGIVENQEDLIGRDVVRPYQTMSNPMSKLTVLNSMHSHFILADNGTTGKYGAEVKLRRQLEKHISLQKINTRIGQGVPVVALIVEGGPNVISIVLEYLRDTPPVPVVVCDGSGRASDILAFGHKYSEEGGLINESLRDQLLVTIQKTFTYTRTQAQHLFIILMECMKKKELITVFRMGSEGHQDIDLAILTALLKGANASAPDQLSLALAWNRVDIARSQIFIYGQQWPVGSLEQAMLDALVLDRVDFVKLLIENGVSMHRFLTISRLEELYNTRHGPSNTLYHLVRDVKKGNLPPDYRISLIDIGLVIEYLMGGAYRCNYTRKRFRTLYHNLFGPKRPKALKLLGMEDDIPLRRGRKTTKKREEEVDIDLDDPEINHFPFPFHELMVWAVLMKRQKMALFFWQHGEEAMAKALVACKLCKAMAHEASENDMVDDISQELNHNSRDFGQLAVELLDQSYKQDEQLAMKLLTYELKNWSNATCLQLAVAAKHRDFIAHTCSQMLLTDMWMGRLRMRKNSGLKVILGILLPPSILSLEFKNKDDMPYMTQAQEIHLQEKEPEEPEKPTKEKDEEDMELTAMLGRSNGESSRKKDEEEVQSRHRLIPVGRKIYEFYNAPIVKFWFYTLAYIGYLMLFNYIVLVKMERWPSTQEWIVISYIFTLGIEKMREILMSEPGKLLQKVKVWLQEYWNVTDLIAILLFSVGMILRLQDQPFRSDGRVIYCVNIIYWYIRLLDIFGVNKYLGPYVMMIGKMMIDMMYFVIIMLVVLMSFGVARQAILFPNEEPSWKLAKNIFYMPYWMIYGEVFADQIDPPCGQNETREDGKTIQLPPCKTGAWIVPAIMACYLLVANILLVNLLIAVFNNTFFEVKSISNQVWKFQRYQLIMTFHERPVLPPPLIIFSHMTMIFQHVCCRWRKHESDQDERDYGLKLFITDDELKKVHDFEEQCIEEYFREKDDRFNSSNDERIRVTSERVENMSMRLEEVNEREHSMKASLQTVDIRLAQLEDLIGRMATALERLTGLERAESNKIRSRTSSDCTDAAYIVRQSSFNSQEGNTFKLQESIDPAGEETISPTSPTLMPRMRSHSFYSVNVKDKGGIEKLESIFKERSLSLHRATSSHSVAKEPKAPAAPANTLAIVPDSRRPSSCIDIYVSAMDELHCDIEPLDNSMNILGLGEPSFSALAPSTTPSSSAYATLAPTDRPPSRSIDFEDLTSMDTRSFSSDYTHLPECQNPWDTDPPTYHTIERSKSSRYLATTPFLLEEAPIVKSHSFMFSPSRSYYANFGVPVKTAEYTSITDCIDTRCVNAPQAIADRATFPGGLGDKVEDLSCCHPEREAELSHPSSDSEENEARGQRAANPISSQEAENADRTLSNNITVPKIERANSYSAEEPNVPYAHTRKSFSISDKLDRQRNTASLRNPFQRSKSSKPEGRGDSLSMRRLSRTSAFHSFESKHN
pIC50: −log10 of the molar value.
MEASURE_NAME: pIC50

In the examples that follow, each entry is paired with its recorded pIC50.
COMPOUND | pIC50
Cc1ncsc1COc1ccc2oc(C)c(C(=O)NC3(CN(C)C)CCC3)c2c1 [compound 108] | > 6.00
Cc1oc2ccc(OCc3ccsc3)cc2c1C(=O)NC1CCNC1=O (centres unmarked) [compound 035] | > 6.00
Cc1cccc(COc2ccc3oc(C)c(C(=O)N[C@H]4CCNC4)c3c2)n1 [compound 029] | > 6.00
Cc1oc2ccc(OCc3cccnc3C(F)(F)F)cc2c1C(=O)NC1COCC1O (single isomer, unassigned) [147-Dia 1-En 2] | > 6.00

q: GET /values?readout=pIC50&item= Cc1oc2ccc(OCc3cccnc3C(F)(F)F)cc2c1C(=O)NC1(CCO)COC1 [compound 129]
a: > 6.00

q: GET /values?readout=pIC50&item= Cc1oc2c(C#N)cc(OCc3cccnc3C(F)(F)F)cc2c1C(=O)NC1CCNCC1(F)F (single isomer, unassigned) [196-En 2]
a: 4.70 to 6.00

q: GET /values?readout=pIC50&item= Cc1oc2c(C#N)cc(OCc3cccnc3C(F)(F)F)cc2c1C(=O)NC1CCNCC1(F)F (single isomer, unassigned) [196-En 1]
a: < 4.70

q: GET /values?readout=pIC50&item= Cc1ncsc1COc1ccc2oc(C(F)F)c(C(=O)NC3CCN(CCO)C3=O)c2c1 (single isomer, unassigned) [198-En 1]
a: 4.70 to 6.00

q: GET /values?readout=pIC50&item= Cc1oc2ccc(OCc3cccnc3C(F)(F)F)cc2c1C(=O)NC(C)(C)CO [compound 109]
a: > 6.00

q: GET /values?readout=pIC50&item= Cc1oc2ccc(OCc3cccc(N(C)C)n3)cc2c1C(=O)NC1CCNCC1(F)F (centres unmarked) [compound 071]
a: > 6.00

q: GET /values?readout=pIC50&item= Cc1ncsc1COc1ccc2oc(C)c(C(=O)Nc3ccn(C)n3)c2c1 [compound 161]
a: > 6.00

q: GET /values?readout=pIC50&item= Cc1oc2ccc(OCC3CCNC3)cc2c1C(=O)O (centres unmarked) [compound 003]
a: < 4.70

q: GET /values?readout=pIC50&item= Cc1oc2ccc(OCc3ccccn3)cc2c1C(=O)NC1CCNC1=O (centres unmarked) [compound 026]
a: > 6.00

q: GET /values?readout=pIC50&item= Cc1oc2ccc(OCc3ccnn3C)cc2c1C(=O)O [compound 008]
a: < 4.70

q: GET /values?readout=pIC50&item= Cc1ncsc1COc1ccc2oc(C)c(C(=O)NC3(CO)CCOCC3)c2c1F [compound 177]
a: > 6.00

q: GET /values?readout=pIC50&item= Cc1oc2ccc(OCc3cccnc3C(F)(F)F)cc2c1C(=O)NC1(CO)CCOCC1 [compound 072]
a: > 6.00

q: GET /values?readout=pIC50&item= Cc1ncsc1COc1cc2c(C(=O)NC3(CO)CCOCC3)c(C)oc2cc1F [compound 182]
a: > 6.00
